Target: P2Y purinoceptor 1 (Meleagris gallopavo, UniProt P49652)
Sequence (P49652 whole entry): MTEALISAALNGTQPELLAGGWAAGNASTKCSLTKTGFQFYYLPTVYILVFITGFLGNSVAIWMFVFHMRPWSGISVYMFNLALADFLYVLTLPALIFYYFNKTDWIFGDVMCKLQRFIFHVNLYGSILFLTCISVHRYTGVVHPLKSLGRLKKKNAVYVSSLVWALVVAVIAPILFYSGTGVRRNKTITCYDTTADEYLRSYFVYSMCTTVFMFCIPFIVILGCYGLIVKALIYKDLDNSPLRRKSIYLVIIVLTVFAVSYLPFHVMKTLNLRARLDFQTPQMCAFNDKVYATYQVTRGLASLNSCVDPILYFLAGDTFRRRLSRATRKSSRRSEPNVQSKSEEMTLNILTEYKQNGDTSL
Experiment: Activation of Purinoceptor P2Y1-mediated phospholipase C in turkey erythrocyte membranes
pEC50: −log10 of the molar value.
Quick list: pEC50 per entry.

| compound | pEC50 |
| --- | --- |
| C[S+]([O-])c1nc(N)c2ncn([C@H]3[C@H](O)[C@H](O)[C@@]4(COP(=O)(O)O)C[C@H]34)c2n1 (some centres not stated) | 7.44 |
| CNc1nc(Cl)nc2c1ncn2C1C(O)C(O)[C@@]2(COP(=O)(O)OP(=O)(O)OP(=O)(O)O)C[C@@H]12 (some centres not stated) | 8.22 |
| CSc1nc(N)c2ncn([C@H]3[C@H](O)[C@H](O)[C@@]4(COP(=O)(O)O)C[C@@H]34)c2n1 | 5.92 |
| Nc1nc(Cl)nc2c1ncn2C1C(O)C(O)[C@@]2(COP(=O)(O)OP(=O)(O)OP(=O)(O)O)C[C@@H]12 (some centres not stated) | 8.52 |
| Nc1ncnc2c1ncn2C1C(O)C(O)[C@@]2(COP(=O)(O)OP(=O)(O)CP(=O)(O)O)C[C@H]12 (some centres not stated) | 4.95 |
| CSc1nc(N)c2ncn([C@H]3[C@H](O)[C@H](O)[C@@]4(COP(=O)(O)OP(=O)(O)O)C[C@@H]34)c2n1 | 9.06 |
| Nc1nc(Cl)nc2c1ncn2[C@H]1[C@H](O)[C@H](O)[C@@]2(COP(=O)(O)O)C[C@@H]12 | 5.41 |

* * *

Target: P2Y purinoceptor 1 (Homo sapiens)
Sequence (P47900 whole entry): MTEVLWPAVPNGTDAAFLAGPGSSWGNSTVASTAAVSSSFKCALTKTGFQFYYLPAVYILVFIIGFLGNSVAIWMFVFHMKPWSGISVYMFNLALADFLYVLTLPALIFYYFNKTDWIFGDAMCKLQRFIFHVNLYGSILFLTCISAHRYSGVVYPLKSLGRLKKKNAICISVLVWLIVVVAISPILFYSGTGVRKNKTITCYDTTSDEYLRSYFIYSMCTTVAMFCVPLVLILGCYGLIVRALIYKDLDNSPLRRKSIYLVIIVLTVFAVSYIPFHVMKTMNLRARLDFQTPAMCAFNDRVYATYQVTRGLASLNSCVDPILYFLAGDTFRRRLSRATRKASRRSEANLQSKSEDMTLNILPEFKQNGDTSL
Assay: Accumulation of inositol phosphate in 1321N1 astrocytoma cells expressing human P2Y1 purinoceptor
Measured EC50, listed per entry for reference.

| compound | system | EC50 / nM |
| --- | --- | --- |
| CSc1nc(N)c2ncn([C@H]3[C@H](O)[C@H](O)[C@@]4(COP(=O)(O)O)C[C@@H]34)c2n1 | P2Y purinoceptor 1 (Homo sapiens) | 590 |
| CSc1nc(N)c2ncn(C3C(O)C(O)[C@@]4(COP(=O)(O)OP(=O)(O)OP(=O)(O)O)C[C@@H]34)c2n1 (stereo partly drawn) | P2Y purinoceptor 1 (Homo sapiens) | 23 |
| Nc1nc(Cl)nc2c1ncn2[C@H]1[C@H](O)[C@H](O)[C@@]2(COP(=O)(O)O)C[C@@H]12 | P2Y purinoceptor 1 (Homo sapiens) | 1890 |

* * *

In this section we review reported EC50 values for a set of molecules.
Target: P2Y purinoceptor 1 (Meleagris gallopavo, UniProt P49652)
Assay: Activation of Purinoceptor P2Y1-mediated phospholipase C in turkey erythrocyte membranes
endpoint: EC50 (nM)

| molecule | unit tag | experimental result |
| --- | --- | --- |
| Nc1ncnc2c1ncn2C1C(O)C(O)C2(COP(=O)(O)OP(=O)(O)OP(=O)(O)O)CC12 (centres undefined) | nM | 14 |
| CSc1nc(N)c2ncn(C3C(O)C(O)[C@@]4(COP(=O)(O)OP(=O)(O)OP(=O)(O)O)C[C@@H]34)c2n1 (some centres undefined) | nM | 3.7 |
| Nc1nc(Cl)nc2c1ncn2[C@@H]1O[C@H](COP(=O)(O)OP(=O)(O)OP(=O)(O)O)[C@@H](O)[C@H]1O | nM | 720 |
| CNc1ncnc2c1ncn2C1C(O)C(O)[C@@]2(COP(=O)(O)OP(=O)(O)OP(=O)(O)O)C[C@@H]12 (some centres undefined) | nM | 92 |
